B1: Protein piccolo, residues 1058 to 1114; numbered along this chain, Q9Y6V0 (parent)
chain: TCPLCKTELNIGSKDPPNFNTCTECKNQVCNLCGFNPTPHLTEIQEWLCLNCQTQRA

variants of: B1; experiment: abundance fitness (aPCA) (normalised: wild type 0, dead -1); higher = more abundant; growth selection in yeast, the domain comes from the species named; details: Homo sapiens
Label scheme for abundance fitness: bottom = under -0.7, middle = from -0.7 up to -0.02, top = -0.02 and over

Would you please look over these solved cases?
>>> classification("C25D")
"bottom"
>>> classification("C22P")
"bottom"
>>> classification("T54A")
"top"
>>> classification("K14P")
"middle"
>>> classification("F19H")
"middle"

Problem: The entry to classify is E24G ; which class holds it?
Solution: top

Problem: The entry to classify is K14R ; which class holds it?
Solution: top

Problem: The entry to classify is C2R ; which class holds it?
Solution: bottom

Problem: The entry to classify is C30D ; which class holds it?
Solution: middle

Problem: The entry to classify is E8Q ; which class holds it?
Solution: middle
